Cited source: FireProtDB (doi:10.1111/j.1432-1033.1992.tb16932.x)

B1: Ribonuclease HI, P0A7Y4 (parent)
chain: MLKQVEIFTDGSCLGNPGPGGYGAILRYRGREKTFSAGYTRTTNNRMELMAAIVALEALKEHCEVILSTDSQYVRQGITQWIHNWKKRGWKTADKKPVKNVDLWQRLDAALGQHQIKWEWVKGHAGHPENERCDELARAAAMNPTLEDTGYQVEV

Variants of: B1
Experimental Setup: Escherichia coli (strain K12); pH 3; Thermal; CD; glycine-HCl 10 mM; reversible: yes; structure 2RN2; whole UniProt chain shown

{"Variant Annotation": "S68G", "Readout Units": "°C", "Tm": 41.8}
{"Variant Annotation": "S68L", "Readout Units": "°C", "Tm": 48.2}
{"Variant Annotation": "S68T", "Readout Units": "°C", "Tm": 49.1}
{"Variant Annotation": "S68A", "Readout Units": "°C", "Tm": 48.3}
{"Variant Annotation": "S68V", "Readout Units": "°C", "Tm": 51.7}
